- Tested on: Crude diglycosidase
- ASSAY_REMARKS: Examination of pH in the conversion into isoflavone aglycons by diglycosidase using soybean materials
- Type: biochemical, Penicillium multicolor IAM7153
- Design: concentration or dose not given beside the values
- MEASUREMENT_SETUP: pH6.6; heat treatment of enzyme: yes; reaction time 6 h
TEST_READOUT: Decomposition efficiency of daidzin family in defatted soybean (%)

SAMPLE_SMILES	ASSAY_RESULT
O=c1c(-c2ccc(O)cc2)coc2cc(O[C@@H]3O[C@H](CO)[C@@H](O)[C@H](O)[C@H]3O)ccc12	9.3
O=c1c(-c2ccc(O)cc2)coc2cc(O)ccc12	49.5
O=C(O)CC(=O)OC[C@H]1O[C@@H](Oc2ccc3c(=O)c(-c4ccc(O)cc4)coc3c2)[C@H](O)[C@@H](O)[C@@H]1O	41.2

###

- System: Crude diglycosidase
- ASSAY_REMARKS: Examination of substrate concentration in the conversion into isoflavone aglycons by diglycosidase using soybean materials;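 also: percent of the isoflavone family total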
- Type: biochemical, Penicillium multicolor IAM7153
- MEASUREMENT_SETUP: roasted soy flour, substrate concentration 10%, heat treatment of enzyme yes, reaction time 6 h
TEST_READOUT: Decomposition efficiency: ratio of each glycoside/aglycon within its isoflavone family (%)

MOLECULE	ASSAY_RESULT
COc1cc2c(=O)c(-c3ccc(O)cc3)coc2cc1O [glycitein]	9.9
CC(=O)OC[C@H]1O[C@@H](Oc2ccc3c(=O)c(-c4ccc(O)cc4)coc3c2)[C@H](O)[C@@H](O)[C@@H]1O [acetyldaidzin, 6″-O-acetyldaidzin]	47.7
O=c1c(-c2ccc(O)cc2)coc2cc(O[C@@H]3O[C@H](CO)[C@@H](O)[C@H](O)[C@H]3O)ccc12 [daidzin]	47.5
CC(=O)OC[C@H]1O[C@@H](Oc2cc(O)c3c(=O)c(-c4ccc(O)cc4)coc3c2)[C@H](O)[C@@H](O)[C@@H]1O [acetylgenistin, 6″-O-acetylgenistin]	45.9
COc1cc2c(=O)c(-c3ccc(O)cc3)coc2cc1O[C@@H]1O[C@H](COC(C)=O)[C@@H](O)[C@H](O)[C@H]1O [acetylglycitin, 6″-O-acetylglycitin]	35.1
O=c1c(-c2ccc(O)cc2)coc2cc(O[C@@H]3O[C@H](CO)[C@@H](O)[C@H](O)[C@H]3O)cc(O)c12 [genistin]	49.5
COc1cc2c(=O)c(-c3ccc(O)cc3)coc2cc1O[C@@H]1O[C@H](CO)[C@@H](O)[C@H](O)[C@H]1O [glycitin]	55.0

###

- System: Crude diglycosidase
- ASSAY_REMARKS: Examination of temperature in the conversion into isoflavone aglycons by diglycosidase using soybean materials
- Type: biochemical, Penicillium multicolor IAM7153
- MEASUREMENT_SETUP: 80° C., heat treatment of enzyme no, reaction time 1 h
Recorded Decomposition efficiency of daidzin family in concentrated soybean protein, one value per entry.
TEST_READOUT: Decomposition efficiency of daidzin family in concentrated soybean protein (%)

SAMPLE_SMILES	ASSAY_RESULT
O=c1c(-c2ccc(O)cc2)coc2cc(O)ccc12	31.9
CC(=O)OC[C@H]1O[C@@H](Oc2ccc3c(=O)c(-c4ccc(O)cc4)coc3c2)[C@H](O)[C@@H](O)[C@@H]1O	45.5
O=c1c(-c2ccc(O)cc2)coc2cc(O[C@@H]3O[C@H](CO)[C@@H](O)[C@H](O)[C@H]3O)ccc12	22.6
